# Method description: Human HepG2 cell viability assay in 384 well format
# Type: toxicity, cell-based
# Parameters: dose 125 nL, time 70.5 hour; concentration not given beside the values
# Experimental conditions: HepG2 cells, read-out: Inhibition
Recorded endpoint: cytotoxicity at 70.5 h (%)
Give just the number in %; leave the unit off.

Data request: Request the reported cytotoxicity at 70.5 h associated with NC(=O)C1CCN(C(=O)C2SCCc3sccc32)CC1 (stereo unspecified)
Data returned: -10.3

Data request: Item: "COCCN1CC[C@H]2CN(Cc3ccc(C)s3)C[C@@H]2C1=O"
Data returned: -9.57

Data request: Item: "CC(C)NC(=O)N1CCN(CCn2cccn2)c2ncccc2C1"
Data returned: -2.7

Data request: Item: "CCc1ccc(CNC2(c3ccc(F)cc3)CCOCC2)o1"
Data returned: -5.73

Data request: Item: "CC(=O)N1CCN(C(=O)c2ccc3ccn(C)c3c2)CC1"
Data returned: -15.9

Data request: Item: CCn1ccnc1CN1CCCC1c1c(C)nn(C)c1OC (stereo unspecified)
Data returned: -4.2

Data request: Item: "CC(=O)N1CCS(=O)(=O)[C@@H]2CCN(CC(C)C)CC[C@@H]21"
Data returned: -6.52

Data request: Item: CNC(=O)NC(=O)C(C)N1CCCc2cc(OC)ccc2C1 (stereo unspecified)
Data returned: -13.9

Data request: Item: CN(C)c1ccccc1CN1CCCCC1CNS(C)(=O)=O (stereo unspecified)
Data returned: -4.51

Data request: Item: c1ccc(-c2nnn3c2COC(CNCc2ccccn2)C3)cc1 (stereo unspecified)
Data returned: -5.4

Data request: Item: "O=c1cc(N2CCCCC2)cnn1C[C@H](O)CO"
Data returned: -3.44

Data request: Item: CNC(=O)c1n[nH]c2c1C(c1cccc3nsnc13)CC(=O)N2 (stereo unspecified)
Data returned: -3.59

Data request: Item: "CCN(CC)CCCNC(=O)Nc1c(C)cccc1C(C)C"
Data returned: -4.07

Data request: Item: "NC(=O)c1cccnc1N1CCN(c2ncnc3c2CCNC3)CC1"
Data returned: -1.91

Data request: Item: "Fc1ccccc1OC1CCN(CCn2cc3ccccc3n2)CC1"
Data returned: -22

Data request: Item: "CS(=O)(=O)N1C[C@@H]2CC[C@H](C1)N(C(=O)CCc1n[nH]c3c1CCCC3)C2"
Data returned: 27.3

----------
Assignment: determine reported cytotoxicity at 70.5 h for the given compounds.
# Method description: Human HepG2 cell viability assay in 384 well format
# Type: toxicity, cell-based
# Parameters: dose 125 nL, time 70.5 hour; concentration not given beside the values
# Experimental conditions: HepG2 cells, read-out: Inhibition
Give just the number in %; leave the unit off.

Data request: Request the reported cytotoxicity at 70.5 h associated with "CC(C)Cc1nnc2sc(-c3cc(C(C)C)n[nH]3)nn12"
Data returned: 12.3

Data request: Item: "CC(C)c1cc(NC(=O)CN2CCc3cncnc3C2)on1"
Data returned: -11.7

Data request: Item: "CCc1nnc(Nc2cccc(C3CCN(C(C)=O)CC3)n2)s1"
Data returned: 44.9

Data request: Item: CS(=O)(=O)N1CCCC12CCCN(C(=O)c1ccc3[nH]ccc3c1)C2 (configuration not stated)
Data returned: -10.6

Data request: Item: "COCCn1ccc2c(NC(=O)C(C)C)cccc21"
Data returned: -1.52

Data request: Item: "COc1nc(N2CCN(C(C)=O)CC2)ncc1Br"
Data returned: -3.12

Data request: Item: CN(CC(F)(F)F)C(=O)C1CSCN1C(=O)OC(C)(C)C (configuration not stated)
Data returned: 4.04

The values you see were collected from ChEMBL document CHEMBL3507680.
